- test-description: Tmax in Sprague-Dawley rat at 1 mg/kg, iv measured upto 24 hrs by LC-MS/MS analysis
- Type: ADME, organism-based
- protocol-conditions: in vivo
metric: Tmax (min)
Unit min implied. Number only.

Per the records, this compound ( C[C@H](Nc1nc(N)nc(N)c1C#N)c1c(-c2ccccc2)c(=O)n2cc(F)ccc2c1-c1ccc(F)cc1 ) has Tmax equal to 4.8

---

- test-description: Drug uptake in CB.17 SCID mouse tumor xenografted with OCI-LY10 cells at 1 mg/kg, po once daily for 24 days
- Format: ADME, organism-based, Neoplasm
- protocol-conditions: time 24 day, read-out: Drug uptake
metric: concentration at 576 h
Param answer (str): number followed by unit.

Per the records, this compound ( C[C@H](Nc1nc(N)nc(N)c1C#N)c1c(-c2ccccc2)c(=O)n2cc(F)ccc2c1-c1ccc(F)cc1 ) has concentration at 576 h equal to 130 nM

---

- test-description: Tmax in Beagle dog at 1 mg/kg, iv measured upto 24 hrs by LC-MS/MS analysis
- Type: ADME, organism-based, Canis lupus familiaris
- protocol-conditions: in vivo
metric: Tmax (min)
Unit min implied. Number only.

Per the records, this compound ( CC[C@H](Nc1ncnc2[nH]cnc12)c1nc2cccc(F)c2c(=O)n1-c1ccccc1 [IDELALISIB] ) has Tmax equal to 4.8

---

- test-description: Plasma concentration in CB.17 SCID mouse xenografted with OCI-LY10 cells at 30 mg/kg, po once daily for 24 days
- Type: ADME, organism-based
- protocol-conditions: time 24 day
metric: concentration at 576 h (µM)
Unit µM implied. Number only.

Per the records, this compound ( C[C@H](Nc1nc(N)nc(N)c1C#N)c1c(-c2ccccc2)c(=O)n2cc(F)ccc2c1-c1ccc(F)cc1 ) has concentration at 576 h equal to 5.22

---

- test-description: Volume of distribution at steady state in Sprague-Dawley rat at 1 mg/kg, iv measured upto 24 hrs by LC-MS/MS analysis
- Format: ADME, organism-based
- protocol-conditions: in vivo, read-out: Vdss
metric: Vd
Param answer (str): number followed by unit.

Per the records, this compound ( C[C@H](Nc1nc(N)nc(N)c1C#N)c1c(-c2ccccc2)c(=O)n2cc(F)ccc2c1-c1ccc(F)cc1 ) has Vd equal to 1 L/kg

---

- test-description: Volume of distribution at steady state in BALB/C mouse at 10 mg/kg, iv measured upto 24 hrs by LC-MS analysis
- Assay type: ADME, organism-based
- protocol-conditions: in vivo, read-out: Vdss
metric: Vd (L/kg)
Unit L/kg implied. Number only.

Per the records, this compound ( CC[C@H](Nc1ncnc2[nH]cnc12)c1nc2cccc(F)c2c(=O)n1-c1ccccc1 ) has Vd equal to 0.73

---

- test-description: Drug uptake in CB.17 SCID mouse tumor xenografted with OCI-LY10 cells at 30 mg/kg, po once daily for 24 days
- Type: ADME, organism-based, Neoplasm
- protocol-conditions: time 24 day, read-out: Drug uptake
metric: concentration at 576 h (µM)
Unit µM implied. Number only.

Per the records, this compound ( C[C@H](Nc1nc(N)nc(N)c1C#N)c1c(-c2ccccc2)c(=O)n2cc(F)ccc2c1-c1ccc(F)cc1 ) has concentration at 576 h equal to 3.25

---

- test-description: AUClast in BALB/C mouse at 10 mg/kg,po measured upto 24 hrs by LC-MS analysis
- Type: ADME, organism-based
- Set-up: route oral, dose 10 mg/kg, time <= 24
- protocol-conditions: in vivo
metric: AUC(0-t) at 24 h (nM·h)
Unit nM·h implied. Number only.

Recorded results for 3 compounds are shown here.
INSERT INTO assay_data (smiles_code, metric, observed_measurement) VALUES
  ('Cc1c([C@H](C)Nc2nc(N)nc(N)c2C#N)c(-c2ccccc2)c(=O)n2cc(F)ccc12', 'AUC(0-t) at 24 h', 2400),
  ('C[C@H](Nc1nc(N)nc(N)c1C#N)c1c(-c2ccccc2)c(=O)n2cc(F)ccc2c1C1CC1', 'AUC(0-t) at 24 h', 2400),
  ('C[C@H](Nc1nc(N)nc(N)c1C#N)c1c(-c2ccccc2)c(=O)n2cc(F)ccc2c1-c1ccc(F)cc1', 'AUC(0-t) at 24 h', 22000);

Per the records, this compound ( C[C@H](Nc1nc(N)nc(N)c1C#N)c1cc(=O)n2cc(F)ccc2c1-c1cc(F)cc(F)c1 ) has AUC(0-t) at 24 h equal to 12000

Per the records, this compound ( C[C@H](Nc1ncnc2[nH]cnc12)c1nc2cccc(Cl)c2c(=O)n1-c1ccccc1 ) has AUC(0-t) at 24 h equal to 328

Per the records, this compound ( C[C@H](Nc1nc(N)nc(N)c1C#N)c1cc2ccc(F)cn2c(=O)c1-c1ccccc1 ) has AUC(0-t) at 24 h equal to 3500

Measured values drawn from ChEMBL document CHEMBL4715876 for this set.
